assay: Drug metabolism in MDCK cells assessed as 4-((((((2R,3S,4R,5R)-5-(3-carbamoyl-2-oxopyrazin-1(2H)-yl)-3,4-dihydroxytetrahydrofuran-2-yl)methoxy)(hydroxy)phosphoryloxy)(hydroxy)phosphoryloxy)methyl)phenyl decanoate formation at 450 uM up to 4 hrs by RP-HPLC-UV analysis; type: ADME, cell-based, Canis lupus familiaris; settings: dog

{"columns": ["Compound", "Drug metabolism"],
 "data": [
  ["CCCCCCCCCCCCCCC(=O)Oc1ccc(COP(=O)(OCc2ccc(OC(=O)CCCC)cc2)OP(=O)(O)OC[C@H]2O[C@@H](n3ccnc(C(N)=O)c3=O)[C@H](O)[C@@H]2O)cc1.CCN(CC)CC (some centres undefined)", "Metabolite_Detected"],
  ["CCCCCCCCCC(=O)Oc1ccc(COP(=O)(OCc2ccc(OC(=O)CCCCCCCCC)cc2)OP(=O)(O)OC[C@H]2O[C@@H](n3ccnc(C(N)=O)c3=O)[C@H](O)[C@@H]2O)cc1.CCN(CC)CC", "Metabolite_Detected"],
  ["CCCCCCCCCC(=O)Oc1ccc(COP(=O)(OCc2ccc(OC(=O)CCCCCCCCC)cc2)OP(=O)(O)OP(=O)(O)OC[C@H]2O[C@@H](n3ccnc(C(N)=O)c3=O)[C@H](O)[C@@H]2O)cc1.CCN(CC)CC.CCN(CC)CC", "Metabolite_Detected"],
  ["CCCCCCCCCCCCCCC(=O)Oc1ccc(COP(=O)(OCc2ccc(OC(=O)CCCC)cc2)OP(=O)(O)OP(=O)(O)OC[C@H]2O[C@@H](n3ccnc(C(N)=O)c3=O)[C@H](O)[C@@H]2O)cc1.CCN(CC)CC.CCN(CC)CC (some centres undefined)", "Metabolite_Detected"]
]}

Origin of values: ChEMBL document CHEMBL4130627
